Molecular target: Muscarinic acetylcholine receptor M1 (Homo sapiens) (UniProt P11229)
Sequence (P11229 whole entry, looked up): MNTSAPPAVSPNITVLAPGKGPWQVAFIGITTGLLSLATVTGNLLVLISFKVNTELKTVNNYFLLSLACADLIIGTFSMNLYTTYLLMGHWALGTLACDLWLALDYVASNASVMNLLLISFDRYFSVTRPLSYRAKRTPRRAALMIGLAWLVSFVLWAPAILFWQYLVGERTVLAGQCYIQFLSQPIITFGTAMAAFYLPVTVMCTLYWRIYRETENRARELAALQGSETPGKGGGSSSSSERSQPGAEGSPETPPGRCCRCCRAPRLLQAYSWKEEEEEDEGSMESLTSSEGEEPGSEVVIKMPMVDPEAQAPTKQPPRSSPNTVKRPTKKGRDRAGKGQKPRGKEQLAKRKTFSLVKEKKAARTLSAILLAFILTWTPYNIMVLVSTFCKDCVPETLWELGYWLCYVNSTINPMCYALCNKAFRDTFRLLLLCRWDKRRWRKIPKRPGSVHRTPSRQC
Assay: Cholinergic receptor muscarinic 1 (CHRM1) small molecule agonists, cell-based qHTS assay (AID 1963589); further: nearly all actives have a fitted effect of over 35% in size
Details: CHRM1-CHO cells, agonist mode, calcium flux fluorescence; series mostly up to 76.8 µM
Calls of active or inactive are those of the source. The call rests on the fitted dose curve.
measurement.kind: activation

molecule="C=C(C)C(=O)OCC(O)CO (configuration not stated)" reported_value=inactive
molecule=CN(C)C(=O)C1(N2CCCCC2)CCN(CC[C@@]2(c3ccc(Cl)c(Cl)c3)CN(C(=O)c3ccccc3)CCO2)CC1 reported_value=inactive
molecule=CNC(=O)c1cc(Oc2ccc(NC(=O)Nc3ccc(Cl)c(C(F)(F)F)c3)cc2)ccn1 reported_value=inactive
molecule=CC(C)(C)C(=O)NCCCC(=O)O reported_value=inactive
molecule="CCCCCC[C@@H](O)C/C=C\\CCCCCCCC(=O)OCC(O)CO (some centres not stated)" reported_value=inactive
molecule=C=C(C)CCO reported_value=inactive
molecule=CC(C)c1ccc(C#N)cc1 reported_value=inactive
molecule=CCCCCCCCCCCCCC(=O)OCC reported_value=inactive
molecule=O=C1c2ccccc2C(=O)C1c1ccc2ccccc2n1 reported_value=inactive
molecule="CC1OC(=O)C(C)OC1=O (configuration not stated)" reported_value=inactive
molecule=O=C(CCC1CCN(Cc2ccccc2)CC1)c1ccc2c(c1)NCCCC2 reported_value=inactive
molecule="C=CCSCC1Nc2cc(Cl)c(S(N)(=O)=O)cc2S(=O)(=O)N1 (configuration not stated)" reported_value=inactive

* * *

Assay: Nuclear factor erythroid 2-related factor 2/antioxidant responsive element (Nrf2/ARE) small molecule agonists: luciferase reporter gene qHTS assay in human keratinocytes (AID 1919969); further: nearly all actives have a fitted effect of over 35% in size
Settings: KeratinoSens HaCaT ARE-luciferase, luminescence, 24 h; series mostly up to 92.4 µM
Text: National Center for Advancing Translational Sciences [NCATS] Division of Preclinical Innovation [DPI] U.S. Environmental Protection Agency [EPA] National Institutes of Environmental Health Sciences [NIEHS] National Toxicology Program [NTP] […] Oxidative stress has been implicated in the pathogenesis of a variety of diseases ranging from cancer to neurodegeneration. […] The activation of the report gene under culture conditions can be detected by ONE-Glo Luciferase Assay System (Promega, Madison, WI). […]
Records with an inconclusive call do not appear. Activity calls are given as the source filed them. The call rests on the fitted dose curve.
Outcomes: active, inactive

molecule=O=C(CCCN1CCC(O)(c2ccc(Br)cc2)CC1)c1ccc(F)cc1 qualitative_label=inactive
molecule=CCCCCCCC(=O)OCC qualitative_label=inactive
molecule=CC(c1cc(C(C)(C)C)cc(C(C)(C)C)c1O)c1cc(C(C)(C)C)cc(C(C)(C)C)c1O qualitative_label=inactive
molecule=CC(=O)Nc1cc(S(=O)(=O)O)cc2cc(S(=O)(=O)O)c(N=Nc3ccccc3)c(O)c12 qualitative_label=inactive
molecule=CN(C[C@@H](CC[N+]12CCC(C3CCCCC3)(CC1)CC2)c1ccc(Cl)c(Cl)c1)C(=O)c1cc(C(F)(F)F)cc(C(F)(F)F)c1 qualitative_label=active
molecule=CCCOC(=O)c1ccc(C(=O)OCCC)nc1 qualitative_label=inactive
molecule=CC1=CC[C@H](C(C)C)C=C1 qualitative_label=inactive
molecule="CC(C(=O)O)c1ccc2c(c1)CC(=O)c1ccccc1S2 (stereo not given)" qualitative_label=inactive
molecule="COC(=O)C1=C(C)NC(C)=C(C(=O)OCCN2CCN(C(c3ccccc3)c3ccccc3)CC2)C1c1cccc([N+](=O)[O-])c1 (stereo not given)" qualitative_label=inactive
molecule=CC(C)(C)CC(=O)OCC(=O)[C@@]1(O)CC[C@H]2[C@@H]3CCC4=CC(=O)C=C[C@]4(C)[C@H]3[C@@H](O)C[C@@]21C qualitative_label=inactive

Measured values drawn from PubChem BioAssay (Tox21) for this set.
